Reference source: paper PMC11784839

For each of the compounds below, state its raw data 1.
Measurement Target: tau (Homo sapiens, UniProt P10636)
Sequence (P10636 623-695 limits assumed): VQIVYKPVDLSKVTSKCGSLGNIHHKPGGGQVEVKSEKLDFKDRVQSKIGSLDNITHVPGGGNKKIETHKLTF
Assay Comment: MCE Phenols Library screening, tau biosensor cell seeding assay (AvZ)
Assay type: cell-based
Experimental Conditions: puncta, replicate 1
Give bare numbers.

{"columns": ["Compound", "raw data 1"],
 "data": [
  ["COc1c(CC=C(C)C)c(O)cc2oc(=O)c(-c3ccc(O)cc3O)cc12", 35905.3],
  ["O=C(/C=C/c1ccc(O)c2oc(-c3ccc(O)c(O)c3)cc12)O[C@H](Cc1ccc(O)c(O)c1)C(=O)O", 6602.17],
  ["COc1cc(C(C)=O)ccc1O", 12482.9],
  ["Cc1c(O)c(C)c2c(c1O)C(=O)C[C@@H](c1ccc(O)cc1)O2", 21763],
  ["COc1ccc(C=O)cc1O", 22438.6]
]}

Record raw data 1 for all entries; do not skip any.
1. C=CCc1ccc(O)c(O)c1
2. Cc1cc(=O)oc2cc(O)cc(O)c12 [5,7-Dihydroxy-4-methylcoumarin]
3. O=C1O[C@H]2[C@@H]3OC(=O)c4cc(O)c(O)c(O)c4-c4c(cc(O)c(O)c4O)C(=O)OC[C@H]2O[C@@H](OC(=O)c2cc(O)c(O)c(O)c2)[C@@H]3OC(=O)c2cc(O)c(O)c3c2[C@@H]2C1=CC(=O)[C@](O)(O3)C2(O)O

[21621.8, 33822.8, 880.948]
